Cited source: PubChem BioAssay AID430

Test: cytotoxicity in HPDE-C7 cells, cell-based, fluorescence, HTS (AID 430);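 note: cells exposed to compound for 48 hours before viability readout; 0% = vehicle and 100% = reference cytotoxic drug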
Conditions: HPDE-C7 pancreatic duct cells viability, at 10 µM, stronger effect = higher value
Out of some 63,000 compounds screened, about 1,100 (1.7%) were called active. For the sample, actives were picked, then their nearest neighbours and some compounds at random. Entries with a potency or affinity are not part of this list.

Compound: O=S(=O)(Nc1ccc2c(c1)OCCO2)c1cccc2cccnc12
cytotoxicity / %: -0.7

Compound: CCOc1ccc(N=C(NC#N)SC)cc1
cytotoxicity / %: -2.8

Compound: COc1ccc([C@@H]2[C@H]3CN(C(C)=O)CC=C3C(C#N)=C(N)C2(C#N)C#N)c2ccccc12
cytotoxicity / %: -8.9

Compound: O=C1CN(C(=O)COC(=O)COc2ccc3c(c2)CCC3)c2ccccc2N1
cytotoxicity / %: 2.9

Compound: O=C(Nn1cnnc1)c1cc(-c2ccccn2)nc2ccccc12
cytotoxicity / %: 2.7

Compound: COC(=O)c1c(F)c(F)c(NCCO)c(F)c1F
cytotoxicity / %: -3.7

Compound: COC(=O)c1ccccc1Nc1ccccc1
cytotoxicity / %: -2.7

Compound: Cn1c(=O)c2c(nc(N3CCCCCC3)n2CC(O)COc2ccccc2)n(C)c1=O (stereo not given)
cytotoxicity / %: 3.5

Compound: C=C(C)COc1ccc(-c2nc(N)ncc2-c2ccc(OC)cc2)c(O)c1
cytotoxicity / %: 70.7

Compound: CCOCCCNC(=O)N[C@@H](Cc1ccccc1)C(=O)OC
cytotoxicity / %: 0.6

Compound: COc1cccc(OCCn2c(C)c(/C=N/n3cnnc3)c3ccccc32)c1
cytotoxicity / %: 75.8

Compound: CCOc1ccc(NS(=O)(=O)c2ccc3c(c2)CCN3C(=O)CCC(=O)O)cc1
cytotoxicity / %: -5.5

Compound: Cc1cccc(OCCn2c(=O)n(C)c3ccccc32)c1
cytotoxicity / %: -3.7

Compound: C/C(=C\c1ccco1)C1C(C#N)=C(N)OC2=C1C(=O)CC(C)(C)C2 (stereo not given)
cytotoxicity / %: -2

Compound: N#Cc1nc(-c2ccc(OCc3ccccc3)cc2)oc1NCc1cccnc1
cytotoxicity / %: 0.6

Compound: Cc1noc(C)c1COC(=O)c1ccc2c(c1)OCCO2
cytotoxicity / %: 4.3

Compound: CCc1ccccc1NC(=O)C(CC)Sc1nc2cc3c(cc2c(=O)n1Cc1ccco1)OCO3 (stereo not given)
cytotoxicity / %: 2.1

Compound: COC(=O)c1[nH]c2cc(OC)ccc2c1NC(=O)CCN1CCN(Cc2ccc3c(c2)OCO3)CC1
cytotoxicity / %: -20.7

Compound: COc1ccc(CNC(=O)C2COc3ccccc3O2)c(OC)c1 (stereo not given)
cytotoxicity / %: -4.4

Compound: C=C(C)COc1ccc(-c2nc(N)ncc2Oc2ccc(OC)cc2)c(O)c1
cytotoxicity / %: -10.3

Compound: COc1cccc(Oc2cnc(N)nc2-c2ccc(OC)cc2O)c1
cytotoxicity / %: 52

Compound: N#Cc1nc(-c2ccc(OCc3ccccc3)cc2)oc1NCCN1CCOCC1
cytotoxicity / %: -1

Compound: CCC(Sc1nc2cc3c(cc2c(=O)n1Cc1ccco1)OCO3)C(=O)Nc1ccccc1OC (stereo not given)
cytotoxicity / %: -11.3

Compound: COc1ccc(-c2nc(N)nc(C)c2Oc2ccccc2Br)c(O)c1
cytotoxicity / %: 87.7

Compound: COc1ccc(CNc2oc(-c3ccccc3)nc2C#N)cc1
cytotoxicity / %: 5.7

Compound: CC(=O)CCc1c(C)[nH]c2ccccc2c1=O
cytotoxicity / %: -19.6

Compound: CCCCOc1ccc(S(=O)(=O)Nc2cc(OC)ccc2OC)cc1
cytotoxicity / %: 31.3

Compound: Cc1c(/C=N/n2cnnc2)c2ccccc2n1C
cytotoxicity / %: 5.2

Compound: COC(=O)c1ccccc1NC(=O)c1cnc2sccn2c1=O
cytotoxicity / %: 2.7

Compound: CCOC(=O)C1C2C=CC3(CN(c4cccc(Cl)c4)C(=O)C13)O2 (stereo not given)
cytotoxicity / %: -0.8

Compound: CC(=O)Nc1ccc(NC(=O)c2cccc(C(=O)OC(C)C)n2)cc1
cytotoxicity / %: -2.2

Compound: O=C(c1cc(S(=O)(=O)N2CCCCC2)c(Cl)cc1N1CCOCC1)N1CCOCC1
cytotoxicity / %: -5.8

Compound: Fc1ccc2[nH]c3c(N4CCN(Cc5ccc6c(c5)OCO6)CC4)ncnc3c2c1
cytotoxicity / %: 89.3

Compound: COc1ccc(-n2nnnc2SCC(=O)c2cc3ccccc3o2)cc1
cytotoxicity / %: -1.1

Compound: CCCc1nnc(NC(=O)c2cccc(OC)c2)s1
cytotoxicity / %: -16.1

Compound: CCOc1ccc(-c2ncncc2-c2ccc(OC)cc2)c(O)c1
cytotoxicity / %: -11.9

Compound: COc1ccc(-c2[nH]ncc2-c2cnn(-c3ccccc3)c2)c(O)c1
cytotoxicity / %: -0.4

Compound: COc1cccc(Oc2cncnc2-c2ccc(OC)cc2O)c1
cytotoxicity / %: 20.3

Compound: CN1CCN(Cc2c(O)ccc3c(=O)c(Oc4ccccc4Cl)c(C(F)(F)F)oc23)CC1
cytotoxicity / %: -17

Compound: O=C(CN1C(=O)CSC1=O)NCc1ccccc1
cytotoxicity / %: 8.1

Compound: COC(=O)Nc1sccc1C(=O)Nc1sccc1C(=O)OC
cytotoxicity / %: 3.5

Compound: N#Cc1nc(-c2ccc(OCc3ccc(Cl)cc3)cc2)oc1NCCCn1ccnc1
cytotoxicity / %: -0.4

Compound: Cc1cc(C)n(-c2c(F)c(F)c(CN3CCOCC3)c(F)c2F)n1
cytotoxicity / %: -4.7

Compound: COc1ccc(-n2nc(C(=O)N3CCC(C#N)CC3)c3c4ccccc4n(C)c3c2=O)cc1
cytotoxicity / %: -4.7

Compound: CN(CCOC(=O)c1ccc2c(c1)OCCO2)Cc1ccccc1
cytotoxicity / %: -14

* * *

Experiment: cytotoxicity in HPDE-C7 cells, cell-based, fluorescence, HTS (AID 430);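 note: cells exposed to compound for 48 hours before viability readout; 0% = vehicle and 100% = reference cytotoxic drug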
Details: HPDE-C7 pancreatic duct cells viability, at 10 µM, stronger effect = higher value
In all, about 63,000 compounds went through this assay and about 1,100 (1.7%) were called active. Only a selection was taken, and actives are over-represented in it overall. Measured potencies and affinities stand elsewhere.
Here, each record is paired with measured cytotoxicity data.

Compound: CCOc1cc(NC(=O)c2ccco2)c(OCC)cc1NC(=O)CCC(=O)NCc1cccnc1
cytotoxicity / %: 32.8
//
Compound: Cc1noc(C)c1CSc1ncnc2ccccc12
cytotoxicity / %: 4.7
//
Compound: Cc1cc(C(=O)COC(=O)c2ccc3c(c2)OCO3)c(C)n1Cc1cccs1
cytotoxicity / %: -3.8
//
Compound: CN(C)C(=O)N1CCC(C(=O)NCc2ccccc2)CC1
cytotoxicity / %: -9.6
//
Compound: COc1cccc(C2C(C#N)=C(N)OC3=C2C(=O)CCC3)c1OC(=O)c1ccco1 (configuration not stated)
cytotoxicity / %: -11.1
//
Compound: Cc1ccc(C)c(CN2CCCNC2=O)c1
cytotoxicity / %: -5.7
//
Compound: CCSc1nsc(SCC)c1C(N)=O
cytotoxicity / %: -6.7
//
Compound: CCOC(=O)N1CCN(C(=O)c2cccc(OC)c2OC)CC1
cytotoxicity / %: 6.7
//
Compound: O=C(OCC(=O)N1CCN(C(=O)c2ccco2)CC1)c1ccccc1C(=O)c1ccc(Cl)cc1
cytotoxicity / %: -5
//
Compound: Clc1c(CSc2nc3ccccc3o2)nc2sccn12
cytotoxicity / %: 13.8
//
Compound: COc1nc(Oc2ccc(C(=O)OCC(N)=O)cc2)nc(N(C)C)n1
cytotoxicity / %: 3.8
//
Compound: CC(C)c1[nH]nc2c1C(C(C)C)C(C#N)=C(N)O2 (configuration not stated)
cytotoxicity / %: -24.3

* * *

Test: cytotoxicity in HPDE-C7 cells, cell-based, fluorescence, HTS (AID 430);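 note: cells exposed to compound for 48 hours before viability readout; 0% = vehicle and 100% = reference cytotoxic drug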
Conditions: HPDE-C7 pancreatic duct cells viability, at 10 µM
Out of some 63,000 compounds screened, about 1,100 (1.7%) were called active. Cut-off read from the data, not from the text of the source: active = cytotoxicity above about 50%; inactive = the rest. Shown is part of a subset that was picked to be rich in actives. Results with a measured potency or affinity are listed apart.
Outcomes: TRUE (active), FALSE (inactive)

Compound string: CCOc1ccccc1OCC(=O)O
Qualitative label: FALSE
--
Compound string: CCOC(=O)Cc1cc(=O)n(-c2nc3ccccc3s2)[nH]1
Qualitative label: TRUE
--
Compound string: COc1ccccc1C(=O)N1CCN(c2cccc(C(F)(F)F)c2)CC1
Qualitative label: TRUE
--
Compound string: CCOC(=O)CC(=O)Nc1nc2ccccc2s1
Qualitative label: FALSE
--
Compound string: Cc1nc2ccccc2nc1CSc1nncs1
Qualitative label: FALSE
--
Compound string: Cc1cccc(OCCCC(=O)Nc2ccc3c(c2)OCO3)c1
Qualitative label: FALSE
--
Compound string: COc1ccccc1CC(=O)N1CCN(c2cccc(C(F)(F)F)c2)CC1
Qualitative label: FALSE

* * *

Reported cytotoxicity values for a set of compounds
Assay: cytotoxicity in HPDE-C7 cells, cell-based, fluorescence, HTS (AID 430);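 note: cells exposed to compound for 48 hours before viability readout; 0% = vehicle and 100% = reference cytotoxic drug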
Conditions: HPDE-C7 pancreatic duct cells viability, at 10 µM, stronger effect = higher value
Out of some 63,000 compounds screened, about 1,100 (1.7%) were called active. The entries come from a sample that favours actives as a whole. Entries with a potency or affinity are not part of this list.
Value type: cytotoxicity (%)

Compound: COc1ccc(C2C3=C(CC(C)(C)CC3=O)Nc3n[nH]c(C)c32)cc1 (stereo unspecified)
Number: -9.3
--
Compound: CCOC(=O)c1[nH]c2c(c1C)C(=O)CC(c1ccc(OCC)c(OC)c1)C2 (stereo unspecified)
Number: -5
--
Compound: Cc1ccc2c(n1)sc1c(N)ncnc12
Number: 9.8
--
Compound: Cc1c(C(=O)OC2CCCC2)[nH]c2c1C(=O)CC(c1ccco1)C2 (stereo unspecified)
Number: 79.3
--
Compound: CSCCOC(=O)c1[nH]c2c(c1C)C(=O)CC(c1ccco1)C2 (stereo unspecified)
Number: 64.9
--
Compound: O=C(CN1C(=O)c2ccccc2S1(=O)=O)Nc1ccc(S(=O)(=O)N2CCCCC2)cc1
Number: -22
